Reference for the values: patent US20240116985A1

target: beta-catenin/TCF4 engagement (Homo sapiens, UniProt P35222); construct: expressed in transfected cells; host or cells: HEK293; assay: Nano-BRET target engagement assay (B-cat-Halo & TCF4-Luc in HEK293 cells); assay type: cell-based; conditions: absolute IC50; read-out: NanoBRET Abs IC50
Sequence (P35222 whole entry): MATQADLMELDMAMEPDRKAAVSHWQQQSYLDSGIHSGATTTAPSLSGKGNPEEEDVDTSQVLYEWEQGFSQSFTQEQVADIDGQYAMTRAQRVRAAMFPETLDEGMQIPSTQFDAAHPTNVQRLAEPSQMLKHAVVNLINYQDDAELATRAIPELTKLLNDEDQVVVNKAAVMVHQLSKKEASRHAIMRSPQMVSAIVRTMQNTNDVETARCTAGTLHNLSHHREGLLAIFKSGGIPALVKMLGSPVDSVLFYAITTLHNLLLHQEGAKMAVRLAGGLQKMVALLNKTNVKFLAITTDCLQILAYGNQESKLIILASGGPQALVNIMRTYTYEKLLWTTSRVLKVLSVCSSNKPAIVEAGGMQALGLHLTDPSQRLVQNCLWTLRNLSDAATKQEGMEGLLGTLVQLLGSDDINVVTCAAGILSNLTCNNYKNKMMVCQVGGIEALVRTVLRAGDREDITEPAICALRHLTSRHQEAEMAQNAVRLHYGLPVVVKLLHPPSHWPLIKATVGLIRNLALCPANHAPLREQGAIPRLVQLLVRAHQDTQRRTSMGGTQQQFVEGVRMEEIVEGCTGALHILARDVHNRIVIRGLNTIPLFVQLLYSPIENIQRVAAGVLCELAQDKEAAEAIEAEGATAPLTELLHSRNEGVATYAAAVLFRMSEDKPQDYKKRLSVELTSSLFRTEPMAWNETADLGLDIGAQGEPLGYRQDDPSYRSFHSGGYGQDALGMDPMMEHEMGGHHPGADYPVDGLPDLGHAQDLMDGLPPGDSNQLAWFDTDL
# maps each entry to its pIC50
Please treat pIC50 as minus the base-10 logarithm of the molar concentration.

CC(=O)N1CCC[C@]12CC=CCCCC1(CCCC=CCCCOC(=O)N3CC[C@@](C(=O)N[C@@H](Cc4ccccc4Cl)C(=O)N[C@@H](Cc4csc5ccccc45)C(=O)N[C@@H](CCC(N)=O)C(N)=O)(C3)NC(=O)[C@H](Cc3cccc(C(F)(F)F)c3)NC(=O)[C@H](Cc3ccccc3)NC(=O)[C@H](C)NC(=O)[C@H](C)NC(=O)[C@H](CC(=O)O)NC(=O)[C@H](CC(=O)O)NC1=O)NC(=O)[C@H](CC(C)(C)C)NC(=O)[C@H](CC(=O)O)NC2=O (some centres unmarked): 4.85

Could you now consider this next compound?
Enquiry: Could you tell me which pIC50 is on file for CC(=O)N1CCC[C@]12CC=CCCCC1(CCCC=CCCCOC(=O)N3CC[C@@](C(=O)N[C@@H](Cc4ccccc4Cl)C(=O)N[C@@H](Cc4csc5ccccc45)C(=O)N[C@@H](CCO)C(N)=O)(C3)NC(=O)[C@H](CO)NC(=O)[C@H](Cc3ccccc3)NC(=O)[C@H](C)NC(=O)[C@H](C)NC(=O)[C@H](CC(=O)O)NC(=O)[C@H](CC(=O)O)NC1=O)NC(=O)[C@H](CC1CCCCC1)NC(=O)[C@H](CC(=O)O)NC2=O (some centres unmarked) ?
Return: 4.92

====

biological target: full-length B-Catenin (Uniprot ID P35222) (Homo sapiens); construct: 65 nM full-length B-Catenin (Uniprot ID P35222); test: Alphascreen binding assay (beta-catenin / biotin-TCF4 10-53)
Sequence (P35222 whole entry, one chain of several): as the sequence (P35222 whole entry) above
recorded endpoint: pEC50
Scale for pEC50: -log10 of concentration given in mol/L; no unit attached.

Before answering, review these 4 worked examples.
CC(=O)N1CCC[C@]12CC=CCCCC1(CCCC=CCCCCCC[C@@](C)(C(=O)N[C@@H](Cc3cccc(Cl)c3)C(=O)N[C@@H](Cc3c[nH]c4ccccc34)C(=O)N[C@@H](CCC(N)=O)C(N)=O)NC(=O)[C@H](C(C)C)NC(=O)[C@H](Cc3ccccc3)NC(=O)[C@H](C)NC(=O)[C@H](C)NC(=O)[C@H](CC(=O)O)NC(=O)[C@H](CC(=O)O)NC1=O)NC(=O)[C@H](C)NC(=O)[C@H](CC(=O)O)NC2=O (some centres unmarked) [I-311]: 5.91
CC[C@H](C)[C@@H]1NC(=O)[C@H](CC(=O)O)NC(=O)[C@]2(CC=CCCCC3(CCCC=CCCCCCC[C@@](C)(C(=O)N[C@@H](Cc4ccccc4)C(=O)N[C@@H](Cc4c[nH]c5ccccc45)C(N)=O)NC(=O)[C@H](CCC(N)=O)NC(=O)[C@H](Cc4ccccc4)NC(=O)[C@H](C)NC(=O)[C@H](C)NC(=O)[C@H](CCC(=O)O)NC(=O)[C@H](CC(=O)O)NC3=O)NC1=O)CCCN2C(C)=O (some centres unmarked) [I-193]: 7.12
CC(=O)N[C@@H](Cc1ccccc1)C(=O)N[C@@H](CC(=O)O)C(=O)N[C@@H](C)C(=O)N[C@]1(C)CCCCCCC=CCOC(=O)N2CC[C@@](C(=O)N[C@@H](Cc3ccccc3)C(=O)N[C@@H](Cc3c[nH]c4ccccc34)C(=O)N[C@@H](CCC(N)=O)C(N)=O)(C2)NC(=O)[C@H](C(C)C)NC(=O)[C@H](Cc2ccc3ccccc3c2)NC(=O)[C@H](C)NC(=O)[C@H](C)NC(=O)[C@H](CC(=O)O)NC(=O)[C@H](CC(=O)O)NC1=O [I-113]: 5.21
CC(=O)N[C@@H](Cc1ccccc1)C(=O)N[C@@H](CC(=O)O)C(=O)N[C@@H](C)C(=O)N[C@]1(C)CCCCCCC=CCOC(=O)N2CC[C@@](C(=O)N[C@@H](Cc3ccc(C(=O)O)cc3)C(=O)N[C@@H](Cc3c[nH]c4ccccc34)C(=O)N[C@@H](CCC(N)=O)C(N)=O)(C2)NC(=O)[C@H](C(C)C)NC(=O)[C@H](Cc2ccccc2)NC(=O)[C@H](C)NC(=O)[C@H](C)NC(=O)[C@H](CC(=O)O)NC(=O)[C@H](CC(=O)O)NC1=O [I-111]: 5.12

Please turn your attention to the following entry.
Enquiry: I am curious: what pEC50 value has been reported for COc1cccc(C[C@@H]2NC(=O)[C@H](C)NC(=O)[C@H](C)NC(=O)[C@H](CC(=O)O)NC(=O)[C@H](CC(=O)O)NC(=O)[C@](C)(NC(=O)[C@H](C)NC(=O)[C@H](CC(=O)O)NC(=O)[C@H](Cc3ccccc3)NC(C)=O)CCCCCCC=CCOC(=O)N3CC[C@@](C(=O)N[C@@H](Cc4ccccc4)C(=O)N[C@@H](Cc4c[nH]c5ccccc45)C(=O)N[C@@H](CCC(N)=O)C(N)=O)(C3)NC(=O)[C@H](C(C)C)NC2=O)c1 [I-103] ?
Return: 5.31
